Test system: L1210 leukemia ip in BDF1 mice, survival T/C
protocol details: NCI In Vivo Anticancer Drug Screen. Data for tumor model L1210 Leukemia (intraperitoneal) in B6D2F1 (BDF1) mice
protocol conditions: endpoint: mean survival time; dose: 200.0 mg/kg/injection; schedule: Q01DX009 (ip); vehicle: saline with Tween-80; higher = longer survival
Inconclusive results and toxic doses are left out.
measured endpoint: T/C

Here are 2 compounds together with their reported answers.
[
  {
    "compound": "Cc1cccc(C(C#N)(CCC#N)N2CCOCC2)n1 (stereo not drawn)",
    "T/C": "94 % of control"
  },
  {
    "compound": "c1ccc([Si](c2ccccc2)(c2ccccc2)c2ccc([Si](c3ccccc3)(c3ccccc3)c3ccccc3)cc2)cc1",
    "T/C": "92 % of control"
  }
]

Next compound, T/C to be filled in.
query: Hello, please tell me recorded T/C for this one: O/N=C/CCCC/C=N/O
result: 91 % of control

###

Tested on: L1210 leukemia ip in BDF1 mice, survival T/C
protocol details: NCI In Vivo Anticancer Drug Screen. Data for tumor model L1210 Leukemia (intraperitoneal) in B6D2F1 (BDF1) mice
protocol conditions: endpoint: mean survival time; dose: 200.0 mg/kg/injection; schedule: Q01DX001 (ip); vehicle: saline with Tween-80; higher = longer survival
Toxic doses and inconclusive results are not listed.
Consider the following molecules and their measured T/C readings.

Here are 5 molecules together with their reported answers.
[
  {
    "molecule": "O=C1CCCCC1CCCBr (configuration not stated)",
    "T/C": "98 % of control"
  },
  {
    "molecule": "Nc1ccc(Cn2ccc(=O)[nH]c2=O)cc1",
    "T/C": "94 % of control"
  },
  {
    "molecule": "[O-]/[N+](=N\\O)c1ccc(/[N+]([O-])=N\\O)cc1",
    "T/C": "98 % of control"
  },
  {
    "molecule": "C/C(=N\\Nc1c(F)c(F)c(F)c(F)c1F)c1ccccc1",
    "T/C": "96 % of control"
  },
  {
    "molecule": "CC1=CC(=O)C2=C(C)CCC3C(C)C(=O)OC3C12 (configuration not stated)",
    "T/C": "98 % of control"
  }
]

query: Hello, please tell me recorded T/C for this one: O=C1c2ccsc2C(=O)c2sccc21
result: 92 % of control

query: Hello, please tell me recorded T/C for this one: O=C(O)c1ccccc1C(=O)Nc1ccccc1[N+](=O)[O-]
result: 91 % of control

###

System: L1210 leukemia ip in BDF1 mice, survival T/C
protocol details: NCI In Vivo Anticancer Drug Screen. Data for tumor model L1210 Leukemia (intraperitoneal) in B6D2F1 (BDF1) mice
protocol conditions: endpoint: mean survival time; dose: 50.0 mg/kg/injection; schedule: Q01DX001 (ip); vehicle: carboxymethylcellulose (CMC); higher = longer survival
Toxic doses and inconclusive results are not listed.
Consider the following molecules and their measured T/C readings.

Here are 4 molecules together with their reported answers.
[
  {
    "molecule": "CC(Cl)CN(Cc1cc(CN(CC(C)Cl)CC(C)Cl)c(O)cc1O)CC(C)Cl (stereo not given)",
    "experimental system": "L1210 leukemia ip in BDF1 mice, survival T/C",
    "T/C": "93 % of control"
  },
  {
    "molecule": "CCCCCCCCCC(=O)N1CCCC(C)C1 (stereo not given)",
    "experimental system": "L1210 leukemia ip in BDF1 mice, survival T/C",
    "T/C": "100 % of control"
  },
  {
    "molecule": "COc1ccc(OC)c(NC(=O)Nc2ccc(F)cc2)c1",
    "experimental system": "L1210 leukemia ip in BDF1 mice, survival T/C",
    "T/C": "95 % of control"
  },
  {
    "molecule": "CC(C)(O)c1cccc2c(C(C)(C)O)cccc12",
    "experimental system": "L1210 leukemia ip in BDF1 mice, survival T/C",
    "T/C": "102 % of control"
  }
]

Next molecule, T/C to be filled in.
query: Hello, please tell me recorded T/C for this one: N#Cc1ccc(CCCCCCc2ccc(C#N)cc2)cc1
result: 101 % of control

###

Consider the following molecules and their measured T/C readings.
System: L1210 leukemia ip in BDF1 mice, survival T/C
protocol details: NCI In Vivo Anticancer Drug Screen. Data for tumor model L1210 Leukemia (intraperitoneal) in B6D2F1 (BDF1) mice
protocol conditions: endpoint: mean survival time; dose: 200.0 mg/kg/injection; schedule: Q04DX003 (ip); vehicle: Klucel (hydroxypropylcellulose) (HPC); higher = longer survival
Inconclusive results and toxic doses are left out.

Here are 6 molecules together with their reported answers.
[
  {
    "molecule": "CC(Br)(CBr)CCC(C)(Br)CBr (centres undefined)",
    "experimental system": "L1210 leukemia ip in BDF1 mice, survival T/C",
    "T/C": "96 % of control"
  },
  {
    "molecule": "O=[N+]([O-])c1ccc(S(=O)c2ccc([N+](=O)[O-])cc2)cc1",
    "experimental system": "L1210 leukemia ip in BDF1 mice, survival T/C",
    "T/C": "98 % of control"
  },
  {
    "molecule": "O=C(NCCCl)Nc1ccc2c3c(cccc13)CC2",
    "experimental system": "L1210 leukemia ip in BDF1 mice, survival T/C",
    "T/C": "95 % of control"
  },
  {
    "molecule": "O=C(/C=C/c1ccccc1)NN1CCCCC1",
    "experimental system": "L1210 leukemia ip in BDF1 mice, survival T/C",
    "T/C": "98 % of control"
  },
  {
    "molecule": "CN(C)c1ccc(/C=C/C(=O)c2ccc([N+](=O)[O-])cc2)c(Cl)c1",
    "experimental system": "L1210 leukemia ip in BDF1 mice, survival T/C",
    "T/C": "97 % of control"
  },
  {
    "molecule": "COc1cc(NC=O)c2ncccc2c1",
    "experimental system": "L1210 leukemia ip in BDF1 mice, survival T/C",
    "T/C": "88 % of control"
  }
]

query: Hello, please tell me recorded T/C for this one: CN(C)c1ccc(CN2CCCN(Cc3ccc(N(C)C)cc3)C2c2ccc(N(CCCl)CCCl)cc2)cc1
result: 104 % of control

query: Hello, please tell me recorded T/C for this one: CCCCCCCCCCCCCCCCNS(=O)(=O)c1ccc(NN)cc1
result: 95 % of control

query: Hello, please tell me recorded T/C for this one: CCCCCCN(S(=O)(=O)c1ccc([N+](=O)[O-])cc1)S(=O)(=O)c1ccc([N+](=O)[O-])cc1
result: 88 % of control

###

System: L1210 leukemia ip in BDF1 mice, survival T/C
protocol details: NCI In Vivo Anticancer Drug Screen. Data for tumor model L1210 Leukemia (intraperitoneal) in B6D2F1 (BDF1) mice
protocol conditions: endpoint: mean survival time; dose: 400.0 mg/kg/injection; schedule: Q04DX003 (ip); vehicle: saline with Tween-80; higher = longer survival
Toxic doses and inconclusive results are not listed.
measured endpoint: T/C

Here are 5 compounds together with their reported answers.
[
  {
    "compound": "Cc1ccc(S(=O)(=O)NC(=O)NCCCOC(C)C)cc1",
    "T/C": "96 % of control"
  },
  {
    "compound": "CCOC(=O)C1CC(C)=C(C)CC1C(=O)O (centres undefined)",
    "T/C": "98 % of control"
  },
  {
    "compound": "CCCCNS(=O)(=O)CCCC",
    "T/C": "97 % of control"
  },
  {
    "compound": "COC1OCC(N=[N+]=[N-])C(OS(C)(=O)=O)C1OS(C)(=O)=O (centres undefined)",
    "T/C": "92 % of control"
  },
  {
    "compound": "O=C1c2ccccc2-c2cc(Br)c(NC(=O)C(F)(F)F)cc21",
    "T/C": "100 % of control"
  }
]

query: Hello, please tell me recorded T/C for this one: Cc1cc(Br)c[nH]c1=O
result: 102 % of control

query: Hello, please tell me recorded T/C for this one: O=S(=O)(Cl)OC(CCl)C(OS(=O)(=O)Cl)C(OS(=O)(=O)Cl)C(CCl)OS(=O)(=O)Cl (centres undefined)
result: 114 % of control

query: Hello, please tell me recorded T/C for this one: CC(Br)C(=O)Nc1ccccc1 (centres undefined)
result: 95 % of control

query: Hello, please tell me recorded T/C for this one: c1ccc(C2c3cccc4c3C3c5c2cccc5C(c2ccccc2)c2cccc(c23)C4c2ccccc2)cc1 (centres undefined)
result: 100 % of control

###

Consider the following compounds and their measured T/C readings.
Test system: L1210 leukemia ip in BDF1 mice, survival T/C
protocol details: NCI In Vivo Anticancer Drug Screen. Data for tumor model L1210 Leukemia (intraperitoneal) in B6D2F1 (BDF1) mice
protocol conditions: endpoint: mean survival time; dose: 100.0 mg/kg/injection; schedule: Q01DX001 (ip); vehicle: saline; higher = longer survival
Toxic doses and inconclusive results are not listed.

Here are 3 compounds together with their reported answers.
[
  {
    "compound": "COc1ccc(C)c(CN(C)C)c1",
    "result": "101 % of control"
  },
  {
    "compound": "CC(=O)SCC(CSC(C)=O)c1nncc2ccccc12",
    "result": "95 % of control"
  },
  {
    "compound": "Cc1ccc(C(CS(=O)(=O)c2ccc(C)cc2)c2ccccc2)cc1 (centres undefined)",
    "result": "92 % of control"
  }
]

query: Hello, please tell me recorded T/C for this one: CNC1CCCc2ccccc2C1O (centres undefined)
result: 102 % of control

query: Hello, please tell me recorded T/C for this one: COC(=O)C1=C(O)CN(C)C1=O
result: 86 % of control

query: Hello, please tell me recorded T/C for this one: CCOC(=O)C(Cc1ccc(O)c(N(CCO)CCO)c1)N1C(=O)c2ccccc2C1=O (centres undefined)
result: 101 % of control

query: Hello, please tell me recorded T/C for this one: NC(CCCO)Cc1cc2ccccc2c2ccccc12 (centres undefined)
result: 101 % of control

query: Hello, please tell me recorded T/C for this one: CC(=O)OCC1OC(SSCc2ccccc2)C(OC(C)=O)C(OC(C)=O)C1OC(C)=O (centres undefined)
result: 96 % of control
